// log10 CC50 lookup, one value per entry
# Test system: Huh7.5 cells
# Method: Cytotoxicity assay (MTT) in Huh7.5 cells
# Format: cell-based, Human
# Description: All of the synthesized compounds were examined for their anti-HCV activity and cytotoxicity in Huh 7.5 cells using specific real-time RT-PCR assay, as described in our previous publication. Anti-HCV activity was evaluated by measuring both EC50 (for anti-HCV activity) and CC50 (for cytotoxicity) values. As a key indication, the selectivity index (SI) was calculated as a ratio of CC50 to EC50. Anti-HCV activity of the study compound was estimated by combining its EC50 value with SI. […]
Transform log10 | Measure CC50 | Unit µM

# annotated cases, reported log10 CC50 shown
- O=C(O)CCCC1C2CCCN3CCCC(CN1Cc1ccccc1Cl)C23 (stereo not shown): 3.11
- O=C(O)CCCC1C2CCCN3CCCC(CN1Cc1cccc4ccccc14)C23 (stereo not shown): 3.11
- O=C(O)CCC[C@@H]1[C@H]2CCCN3CCC[C@@H](CN1Cc1ccccc1F)[C@@H]23: 3.22
- O=C(O)CCCC1C2CCCN3CCCC(CN1Cc1ccc(Cl)cc1Cl)C23 (stereo not shown): 2.76
- COc1ccc(CN2CC3CCCN4CCCC(C2CCCC(=O)O)C34)cc1 (stereo not shown) [Compound 12a, 12-N-4-Methoxybenzyl sophoridinic acid]: 3.03

Query: I would be grateful if you could share the reported log10 CC50 for O=C(O)CCCC1C2CCCN3CCCC(CN1Cc1ccc(OC(F)(F)F)cc1)C23 (stereo not shown) [Compound 12f] .
Response: 2.15

Query: I would be grateful if you could share the reported log10 CC50 for O=C(O)CCCC1C2CCCN3CCCC(CN1Cc1ccccc1F)C23 (stereo not shown) [Compound 12d, 12-N-2-Flurobenzyl sophoridinic acid] .
Response: 3.19

Query: I would be grateful if you could share the reported log10 CC50 for O=C(O)CCCC1C2CCCN3CCCC(CN1Cc1cccc(F)c1)C23 (stereo not shown) .
Response: 3.15

Query: I would be grateful if you could share the reported log10 CC50 for Cc1cccc(CN2CC3CCCN4CCCC(C2CCCC(=O)O)C34)c1 (stereo not shown) [Compound 12b, 12-N-3-Methylbenzyl sophoridinic acid] .
Response: 3.12

Query: I would be grateful if you could share the reported log10 CC50 for O=C(O)CCCC1C2CCCN3CCCC(CN1Cc1ccc(Cl)cc1)C23 (stereo not shown) .
Response: 3.40

Query: I would be grateful if you could share the reported log10 CC50 for Cc1ccc(CN2CC3CCCN4CCCC(C2CCCC(=O)O)C34)cc1 (stereo not shown) [Compound 12c, 12-N-4-Methylbenzyl sophoridinic acid] .
Response: 3.34

Query: I would be grateful if you could share the reported log10 CC50 for O=C(O)CCCC1C2CCCN3CCCC(CN1Cc1ccc(Br)cc1)C23 (stereo not shown) .
Response: 3.09

Query: I would be grateful if you could share the reported log10 CC50 for O=C(O)CCCC1C2CCCN3CCCC(CN1Cc1ccc(F)cc1)C23 (stereo not shown) [Compound 12e, 12-N-4-Flurobenzyl sophoridinic acid] .
Response: 3.05

Query: I would be grateful if you could share the reported log10 CC50 for Cc1ccccc1CN1CC2CCCN3CCCC(C1CCCC(=O)O)C23 (stereo not shown) .
Response: 3.05

Query: I would be grateful if you could share the reported log10 CC50 for O=C(O)CCCC1C2CCCN3CCCC(CN1Cc1ccc(Cl)c(Cl)c1)C23 (stereo not shown) .
Response: 3.00

Query: I would be grateful if you could share the reported log10 CC50 for `Cc1cccc(CN2C[C@@H]3CCCN4CCC[C@@H]([C@H]34)[C@H]2CCCC(=O)O)c1` .
Response: 3.38

Query: I would be grateful if you could share the reported log10 CC50 for `O=C(O)CCC[C@@H]1[C@H]2CCCN3CCC[C@@H](CN1Cc1ccc(OC(F)(F)F)cc1)[C@@H]23` .
Response: 3.14
